Can you tell me GI50 for the items I'm about to list?
# Tested on: NCI-H522
# Assay Protocol: NCI tumour cell line growth inhibition, 48 h
Active and inactive are the calls of the source. Rule as the data show it: active = GI50 up to about 1.1 µM and inactive = higher.

Query: What measured GI50 goes with "C[C@]12C=CC(=O)C=C1CC[C@@H]1[C@@H]2CC[C@@]2(C)[C@H]1CC[C@]2(O)C(N)=O" ?
Response: > 100 µM (inactive)

Query: I would be grateful if you could share the reported GI50 for "CN(CCNC(=O)c1cn(C)c2c1ccc1cc(Cl)ccc12)CCNC(=O)c1cn(C)c2c1ccc1cc(Cl)ccc12" .
Response: 1.85 µM (inactive)

Query: # input compound: COc1cc(C2c3[nH]c4ccccc4c3C[C@H]3COC(=O)N23)cc(OC)c1OC (stereo not given in full) ; wanted: its GI50
Response: 0.015 µM (active)

Query: Can you look up the measured GI50 of "CCN(CC)P(=O)(c1ccc2c(c1)OCCOCCOCCOCCO2)N(CC)CC" for me?
Response: > 100 µM (inactive)

Query: Which GI50 value is on record for COc1ccc(NC2CC(C)N(C(=O)c3ccccc3)O2)cc1 (stereo not given) ?
Response: > 10 µM (inactive)

----------
# System: IGROV-1
# Assay Protocol: NCI tumour cell line growth inhibition, 48 h
Calls of active or inactive are those of the source. No stated cut-off is given here; in the data, active = GI50 up to about 1.1 µM and inactive = higher.
Classes to choose from: active, inactive

Query: Fill in: this test's call for O=C(NC1CCC(=O)N1C(=O)OCc1ccccc1)OCc1ccccc1 (stereo not drawn) is ___
Response: inactive

Query: Which outcome was assigned to "C=CC(=O)N1C/C(=C\c2ccc(F)cc2)C(=O)/C(=C/c2ccc(F)cc2)C1" in this test?
Response: active

Query: Could you please tell me the result logged for CN1C(=O)C2(C=CC(O)CC2)c2ccccc21 (stereo not drawn) in this assay?
Response: inactive

Query: Would you mind telling me which call this test gave "COc1cc(/C=C(\C#N)C(=O)c2ccccc2)ccc1O" ?
Response: inactive

Query: Hi, do you know how "COc1ccc(-c2nc(O)c3ccccc3n2)cc1OC" came out in this test?
Response: inactive

Query: Can you look up the reported call for "O=C(Nc1ccccc1)c1cc(S(=O)(=O)Nc2n[nH]c(=O)[nH]2)c(SSc2cc(Cl)c(C(=O)Nc3ccccc3)cc2S(=O)(=O)Nc2n[nH]c(=O)[nH]2)cc1Cl" for me?
Response: inactive

Query: State the result this test recorded for "CN(CCCNC(=O)c1nn(-c2ccc(Cl)cc2Cl)c2c1Cc1ccccc1-2)CCCNC(=O)c1nn(-c2ccc(Cl)cc2Cl)c2c1Cc1ccccc1-2" .
Response: inactive

Query: Which outcome did this test record for the molecule "O=C(CCC(C(=O)OCc1ccccc1)C(=O)OCc1ccccc1)Nc1ccc(OCc2ccccc2)cc1" ?
Response: inactive

----------
# Tested on: BT-549
# Assay Protocol: NCI tumour cell line growth inhibition, 48 h
The source made the active and inactive calls. Cut-off read from the data, not from the text of the source: active = GI50 up to about 1.1 µM and inactive = higher.
// one of TRUE for active, FALSE for inactive, no free text

Query: Kindly provide the recorded test outcome for the following compound: O=C1N(Cc2ccccc2)C2CSCC2N1Cc1ccccc1 (stereo unspecified)
Response: FALSE

Query: Test call, this compound: "Cc1ccc(/N=N/c2c(C)nn(C(=O)CC(=O)Nc3ccc(Cl)cc3)c2C)cc1C"
Response: FALSE

Query: Tell me the recorded outcome of this test for "C/C(=N\N=C(N)N)c1c(C(=O)OCCCCCCOC(=O)c2nc3sccn3c2/C(C)=N/N=C(N)N)nc2sccn12" .
Response: FALSE

Query: In this assay, the call recorded for "Cc1c(CCCl)c(=O)n2c([nH]c3ccccc32)c1C#N" was what?
Response: FALSE

Query: For "Nc1ccn([C@H]2CO[C@@H](CO)O2)c(=O)n1" , what call appears in the results of this test?
Response: FALSE

Query: // param item: COc1cc2c(cc1OC)C1Cc3ccccc3CCN1CC2 (stereo unspecified) ; yields the recorded call
Response: FALSE

Query: Any idea what this test logged for O=C(c1ccccc1)N1OCCC1Nc1ccc(Br)cc1 (stereo unspecified) ?
Response: FALSE

Query: Kindly provide the recorded test outcome for the following compound: "O=c1c2ccccc2oc2c1ccc1ncccc12"
Response: FALSE

Query: // outcome(item) with item = CC(CC(N)C(=O)O)C(=O)O (stereo unspecified)
Response: FALSE

Query: Recorded test outcome, item "Cc1c(/C=N/NC(=S)Nc2ccc(Cl)cc2)c(=O)n(-c2ccccc2)n1C"
Response: TRUE

Query: I would be grateful if you could indicate the recorded call for "Cc1nc2ccccc2n1Cc1ccc(NC(=S)NC2CCCCC2)cc1" .
Response: FALSE

Query: Assay result, entry "CN(CCNC(=O)c1cn(C)c2c1ccc1cc(Cl)ccc12)CCNC(=O)c1cn(C)c2c1ccc1cc(Cl)ccc12" — outcome?
Response: FALSE

Query: What call does the record list for "O=[As](O)(O)c1ccc(NCc2ccccc2)cc1" ?
Response: FALSE

Query: Outcome logged for "O=C1C(Cl)=C(N2CCC[C@@H]2CO)C(=O)c2c(O)ccc(O)c21" in this assay:
Response: FALSE

Query: What did the test return for "Oc1ccc2ccccc2c1/N=N/c1ccc(Cl)cc1" ?
Response: FALSE

Query: Outcome logged for C[C@H](NC(=O)C(C)(Cc1ccc(O)cn1)NC(=O)c1ccccc1)c1ccccc1 (stereo partly specified) in this assay:
Response: FALSE

Query: Status in this test for "CCCCCCCCCCCCCC1=C(O)C(=O)C(CC2=C(O)C(=O)C(CCCCCCCCCCCCC)=C(O)C2=O)=C(O)C1=O" ?
Response: FALSE

Query: Dear all, I need the recorded test outcome for CCOc1cc(NC(C)=O)ccc1C(=O)NN1C(=O)C(Cl)C1c1ccccc1 (stereo unspecified) , thank you.
Response: FALSE

Query: Tell me the recorded outcome of this test for O=C1CSC(c2cccc(Cl)c2)N1c1ccc(-n2c(-c3ccccc3)nc3ccccc3c2=O)cc1 (stereo unspecified) .
Response: FALSE

Query: In this assay, the call recorded for "N#Cc1c(O)c(/N=N/c2ccc(Cl)cc2)c(=O)n2c1[nH]c1ccccc12" was what?
Response: FALSE

Query: Name the outcome recorded for "N#CC(C#N)=C1c2ccccc2C(=NN)c2ccccc21" in the assay.
Response: FALSE
